# study-system: T1, OutB HR domain (residues P112 to K220), purified (Dickeya dadantii, UniProt Q01563 112-220)
# T1 construct: OutB (GspB) of Dickeya dadantii, conserved periplasmic domain, residues 112 to 220; uniformly 15N-labelled where it was the observed protein; the NMR methods speak of residues 112 to 193, the results and legends of 112 to 220; also called OutB^112–220; 15N-labeled OutB HR domain; source: E. coli BL21(DE3), purified (glutathione Sepharose, on-column PreScission cleavage, Superdex S200); not shown: …
# T1 sequence: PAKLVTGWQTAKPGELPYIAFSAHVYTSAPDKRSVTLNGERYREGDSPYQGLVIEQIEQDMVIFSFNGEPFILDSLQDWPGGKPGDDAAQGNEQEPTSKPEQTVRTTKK
# test-details: NMR titration; competition: 15N OutB HR 40 μM, unlabelled OutD N0 60 μM, unlabelled OutC HR 120, 240 and 360 μM; HSQC chemical shifts
# condition-label: both partners purified
property: Kd

Lookup: Supply reported Kd belonging to this binder: OutD N0 domain (residues 1 to 85 of signal peptide-less OutD), purified (domain or fragment, secretin OutD (GspD) of Dickeya dadantii, N0 domain, residues A1 to S85; numbers count on: the mature protein; 15N-labelled in the reciprocal experiment) AEFSASFKGTDIQEFINTVSKNLNKTVIIDPTVRGTISVRSYDMMNEGQYYQFFLSVLDVYGFSVVPMDNGVLKVIRSKDAKSSS
Found: ~10 µM
